Target: T1, TNFR1 (Homo sapiens, UniProt P19438)
T1 chain: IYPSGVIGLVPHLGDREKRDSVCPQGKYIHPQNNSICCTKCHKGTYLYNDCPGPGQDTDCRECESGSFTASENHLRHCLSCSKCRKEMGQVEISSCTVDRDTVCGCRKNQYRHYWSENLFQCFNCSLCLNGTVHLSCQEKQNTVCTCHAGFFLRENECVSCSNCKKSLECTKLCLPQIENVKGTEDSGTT
Assay: yeast display SC50
Listed here: items and their measured apparent Kd (screen).
Endpoint label: apparent Kd (screen)

1) V102W (designed binder) SMEEEVEKAAKEYEKKKKEAIEKHLEKLKAKDKEAAERFLKELEEAAKEYAKDEAKTMSEEEAKRRAKKYKEKVLLSELSEEEQKEIKEAEEKLVRTILKYWEEAAK	1.4 nM
2) E22Y (designed binder) SMEEEVEKAAKEYEKKKKEAIYKHLEKLKAKDKEAAERFLKELEEAAKEYAKDEAKTMSEEEAKRRAKKYKEKVLLSELSEEEQKEIKEAEEKLVRTILKYVEEAAK	1.27 nM
